The origin of these recorded values is the supplement of paper PMC10567573.

Reported protein stability index values are given for each entry in this list.
B1: MATN2 (parent)
chain: FIVDILQFLDIGPDVTRVGLLQYG

variants of: B1; experiment: protein stability index of a GFP-peptide fusion (GPS, HEK-293T) (PSI 1-6); higher = more stable; details: c terminus: a fixed tail appended;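 further: lentivirally expressed fusions sorted by FACS into six bins by GFP to DsRed ratio, PSI derived from sequencing read proportions per bin multiplied by bin number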
endpoint_label: protein stability index

>>> df
    variant_string           endpoint_label  value
 0             F1V  protein stability index   1.05
 1            G24L  protein stability index   4.05
 2             F1Y  protein stability index   2.36
 3            V15A  protein stability index   2.88
 4            R17C  protein stability index   2.86
 5            G24W  protein stability index   3.04
 6            V15P  protein stability index    3.2
 7            V18P  protein stability index   3.38
 8             L9E  protein stability index   1.72
 9            L20V  protein stability index      4
10             Q7C  protein stability index   2.24
11             Q7P  protein stability index   2.12
12             Q7Y  protein stability index   3.34
13            L21E  protein stability index   3.73
14            G19E  protein stability index   3.93
15            G19A  protein stability index   2.26
